# Assay info: enzyme activity assay at 23° C. with purified enzyme
# Assay type: biochemical
# Measurement context: wild-type set at 100%
Property: maximum activity as a percentage of the wild-type enzyme's activity, Fluazifop (%)

| Molecule | Unit label | Measured value |
| --- | --- | --- |
| MON-HT8: engineered oxygenase protein, amino acid sequence SEQ ID NO:37 (protein) MHAALTPLTNKYRFIDVQPLTGVLGAEITGVDLREPLDDSTWNEILDAFHTYQVIYFPGQAITNEQHIAFSRRFGPVDPVPILKSIEGYPEVQMIRREANESGRVIGDDWHTDSTFLDAPPAAVVMRAIEVPEYGGDTGFLSMYSAWETLSPTMQATIEGLNVVHSATKVFGSLYQATNWRFSNTSVKVMDVDAGDRETVHPLVVTHPVTGRRALYCNQVYCQKIQGMTDAESKSLLQFLYEHATKFDFTCRVRWKKDQVLVWDNLCTMHRSVPDYGNAFRYLTRTTVAGDKPSR | % | 50 |
| MON-HT9: engineered oxygenase protein, amino acid sequence SEQ ID NO:40 (protein) MHAALTPLTNKYRFIDVQPLTGVLGAEITGVDLREPLDDSTWNEILDAFHTYQVIYFPAQQITNEQHISFSRRFGPVDPVPLLKSIEGYPEVQMIRREANESGRILGDDWHTDSTFLDAPPAAVVMRAIEVPEYGGDTGFLSMYSAWDTLSDTMKATIEGLNVVHSATRVFGSLYQAQNWRFSNTSVKVMDVDAGDRETVHPLVVSHPVTGRRALYCNQVYCQRIEGMTDAESKCLLQFLYEHATKFDFTCRVRWKKDQVLVWDNLCTMHRAVPDYAGKFRYLTRTTVAGDRPAR | % | 41 |
